- ASSAY_PROTOCOL: Cytotoxicity against human BEAS-2B cells assessed as inhibition of cell growth at 40 uM incubated for 48 hrs by CCK-8 assay relative to control
- Assay type: toxicity, cell-based
Field: inhibition at 48 h, 40 µM. Provide a value for each of the molecules that follow.

Look at this molecule and give its reported inhibition at 48 h, 40 µM. `C[C@H](/C=C/[C@H](CO)C(C)(C)O)[C@H]1CCC2=C3C=CC4=CC(=O)CC[C@]4(C)[C@H]3CC[C@@]21C`
< 7%

Look at this molecule and give its reported inhibition at 48 h, 40 µM. `C[C@H](/C=C/[C@H](CO)C(C)(C)O)[C@H]1CCC2=C3C=CC4=CC(=O)CC[C@]4(C)[C@H]3C[C@@H](O)[C@@]21C`
< 7%

Values compiled from ChEMBL document CHEMBL5532713.
